Values compiled from paper PMC4029899.

// reported AUC(0-inf) for each item listed
Biological target: CYP2D6 (Homo sapiens, UniProt P10635)
Sequence (P10635 whole entry): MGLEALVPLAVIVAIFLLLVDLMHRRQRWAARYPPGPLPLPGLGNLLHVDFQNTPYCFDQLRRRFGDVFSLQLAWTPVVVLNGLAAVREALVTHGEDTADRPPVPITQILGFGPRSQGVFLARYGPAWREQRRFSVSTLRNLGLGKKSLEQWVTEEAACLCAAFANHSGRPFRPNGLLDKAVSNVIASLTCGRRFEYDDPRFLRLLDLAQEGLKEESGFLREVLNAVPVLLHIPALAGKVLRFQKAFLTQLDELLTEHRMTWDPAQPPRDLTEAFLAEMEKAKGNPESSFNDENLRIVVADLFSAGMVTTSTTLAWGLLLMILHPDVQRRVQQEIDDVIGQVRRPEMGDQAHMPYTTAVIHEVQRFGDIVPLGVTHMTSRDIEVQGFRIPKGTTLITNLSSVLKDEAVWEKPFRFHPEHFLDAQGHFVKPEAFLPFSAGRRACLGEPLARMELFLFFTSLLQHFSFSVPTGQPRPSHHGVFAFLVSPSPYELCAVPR
Experiment: Clinical cocktail DDI study with fluoxetine, dextromethorphan probe
Type: in vivo
Conditions: both, human, plasma, po, 30 mg, probe dextromethorphan
Answer with the value and then the unit.

>>> readout_value("COc1ccc2c(c1)[C@]13CCCC[C@@H]1[C@H](C2)N(C)CC3")
"0.068 µM·h"

Please look at the following compound next.
[ask] Look up AUC(0-inf) with CYP2D6 (Homo sapiens, UniProt P10635) for this compound: `CN1CC[C@@]23CCCC[C@@H]2[C@@H]1Cc1ccc(O)cc13`
[reply] 0.029 µM·h
